experiment: qHTS Assay for NPC1 Promoter Activators; conditions: Huh7 NPC1 promoter luciferase reporter, 24 h; series mostly up to 9.22 µM; note: nearly all actives have a fitted effect of over 60% in size;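 for activation: reporter is driven by a mutant NPC1 promoter; % of control where 0% means no effect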
Screen size: about 320,000 compounds; about 7,600 (2.4%) were called active. Inconclusive results (about 3%) are left out. Calls come from the whole dose curve; as a rule, active = well fitted activation curve with a large enough effect; inconclusive = small, poorly fitted or top-dose-only effect; inactive = no such curve, though single readings can be large or run the other way. What follows is part of a selection rich in actives, with near analogues and random picks from the rest.
Outcome codes: active, inactive

molecule: Cc1cccc(-c2nc3ccc(C(=O)NCCN4CCN(C)CC4)cc3nc2-c2cccc(C)c2)c1
category.label: inactive

molecule: Cc1ccc(C(=O)CN2C(=O)NC3(CCOc4ccccc43)C2=O)s1 (centres undefined)
category.label: inactive

molecule: Cc1cc(=O)oc2cc(NC(=O)C(C)Oc3ccccc3)ccc12 (centres undefined)
category.label: inactive

molecule: O=C(NCCN1CCOCC1)c1cccc(S(=O)(=O)Nc2ccc(F)cc2)c1
category.label: inactive

molecule: Cc1cccc(-c2noc(CCC(=O)NC3CCCC3)n2)c1
category.label: inactive

molecule: O=C(Nc1nnc(C2CC2)s1)c1cc(Cl)sc1Cl
category.label: inactive

molecule: O=C(CCNC(=O)c1ccc([N+](=O)[O-])cc1)NC1CCCCC1
category.label: inactive

molecule: CN(Cc1ccccc1)C(=O)c1ccc(COc2ccccc2)cc1
category.label: inactive

molecule: Cc1ccc(OCc2nc3ccccc3n2C)cc1
category.label: active

molecule: Cc1cccc(NC(=O)CN2CCN(C(=O)C3CCN(C(=O)/C=C/c4ccccc4)CC3)CC2)c1C
category.label: inactive

molecule: COc1cccc(COc2ccc(N(C)S(=O)(=O)c3ccccc3)cc2)c1
category.label: inactive

molecule: CCN(CC)S(=O)(=O)c1ccc(-c2cn3ccc(C)cc3n2)cc1
category.label: active

molecule: C=CCNC(=O)c1ccc(C)c(Br)c1
category.label: inactive

molecule: CC(=O)c1ccc(N2CCN(C(=O)CCc3ccccc3)CC2)cc1
category.label: inactive

molecule: COC(=O)Cc1ccc(OCC(=O)NC2CCCC2)cc1
category.label: inactive

molecule: COc1ccc(Cn2c(=S)[nH]c3cc(C(=O)N4CCCCC4)ccc3c2=O)cc1
category.label: inactive

molecule: Cc1cnc(NC(=O)C2CCCC2)s1
category.label: inactive

molecule: CC(=O)c1ccc(N2CCN(CC(O)c3ccccc3)CC2)cc1 (centres undefined)
category.label: inactive

molecule: CCOc1ccc(N2C(=O)CSC2=NC#N)cc1
category.label: inactive

molecule: CCCN(C(=O)c1nc2nccc(C)n2n1)c1c(N)n(Cc2ccccc2)c(=O)[nH]c1=O
category.label: inactive

molecule: CCc1cc(C(=O)Nc2nnc(C3CC3)s2)sc1C
category.label: inactive

molecule: NC(=O)c1ccsc1NC(=O)COC(=O)COc1ccc(C=O)cc1
category.label: inactive

molecule: CCN(CC)c1ccc(NC(=O)CN2C(=O)NC3(CCc4ccccc43)C2=O)cc1 (centres undefined)
category.label: inactive

molecule: CCCc1ccc(C(=O)COC(=O)CN2C(=O)NC3(CCCCC3C)C2=O)cc1 (centres undefined)
category.label: inactive

molecule: COc1cc(-c2nnn(CC(=O)NCc3ccccc3)n2)cc(OC)c1OC
category.label: inactive

molecule: O=C(Cc1cccs1)Nc1nnc(C2CC2)s1
category.label: inactive

molecule: Cc1cccc(-c2nc(Nc3ccc(O)cc3)c3ccccc3n2)c1
category.label: inactive

molecule: CC(NCc1ccccc1OC1CCCC1)c1ccccc1 (centres undefined)
category.label: inactive

molecule: O=C(COC(=O)C1CC2CCCC(C1)C2=O)NC(=O)c1ccccc1 (centres undefined)
category.label: inactive

molecule: CC(C)N(C(=O)CN1CCN(S(=O)(=O)c2ccc(Br)s2)CC1)C(C)C
category.label: inactive

molecule: CCOc1ccc(OCc2cccc(C(=O)N(CC)CC)c2)cc1
category.label: active

molecule: Cc1cnc(NC(=O)c2ccccn2)s1
category.label: active

molecule: C=CCNC(=O)c1ccc2c3n(nc2c1)-c1ccc(C)cc1CO3
category.label: active

molecule: CC(=O)Oc1ccc(-c2cccc(C(=O)N3CCCCC3)c2)cc1
category.label: inactive

molecule: CCN(c1cccc(C)c1)S(=O)(=O)c1ccc(-c2coc(C)n2)cc1
category.label: inactive

molecule: Cc1cc(C(=O)Nc2nnc(C3CC3)s2)c(C)s1
category.label: active

molecule: O=C(Nc1ccccc1)c1nnsc1S(=O)(=O)c1ccc(Cl)cc1
category.label: inactive

molecule: CC(C)(C)n1ncc2c(=O)n(Cc3c(Cl)cccc3Br)cnc21
category.label: inactive

molecule: Cc1ccc(-c2noc(CN3CCN(Cc4ccccc4)CC3)n2)cc1
category.label: inactive

molecule: COc1ccc(-c2cn3ccc(C)cc3n2)cc1
category.label: active

molecule: O=C(CNS(=O)(=O)c1ccc2ccccc2c1)Nc1ccc(F)c(F)c1F
category.label: inactive

molecule: Cc1cccc(NC(=O)CSCC(=O)Nc2nnc(C3CC3)s2)c1
category.label: inactive

molecule: COc1ccc(OCc2cccc(C(=O)N3CCCC3)c2)cc1
category.label: active

molecule: Cc1ccc(C)c(OCC(=O)NNC(=O)C2CCC2)c1
category.label: inactive

* * *

experiment: qHTS Assay for NPC1 Promoter Activators; conditions: Huh7 NPC1 promoter luciferase reporter, 24 h; series mostly up to 9.22 µM; note: nearly all actives have a fitted effect of over 60% in size;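 for activation: reporter is driven by a mutant NPC1 promoter; % of control where 0% means no effect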
Hit rate of the full screen: of about 320,000 compounds, about 7,600 (2.4%) were called active. Roughly 3% stayed inconclusive and do not appear here. Calls follow the shape of the dose curve; as a rule, active = well fitted activation curve with a large enough effect; inconclusive = small, poorly fitted or top-dose-only effect; inactive = no such curve, though single readings can be large or run the other way. The list comes from a sample in which actives are over-represented; it also holds close analogues and randomly drawn compounds.
Classes used: active, inactive

smiles.str: CC(=NCc1ccco1)c1c(C(F)(F)F)[nH]n(-c2nc3ccccc3s2)c1=O
category.label: active

smiles.str: CC(=NCc1ccco1)C1=C(O)c2ccccc2C1=O
category.label: inactive

smiles.str: Cc1ccc(NS(=O)(=O)c2ccc3c(c2)CC(=O)N3)cc1Cl
category.label: inactive

smiles.str: CN(C)S(=O)(=O)c1cccc(NC(=O)COc2ccc3ccccc3c2)c1
category.label: inactive

smiles.str: CCCCOC(=O)Nc1nnc(CC(=O)NCc2ccccc2)s1
category.label: inactive

smiles.str: Cc1cc(C)c(S(=O)(=O)N2CCC(C(=O)OCc3c(C)noc3C)CC2)c(C)c1
category.label: inactive

smiles.str: C/C(CC(=O)Nc1cccc(F)c1)=N\NC(=O)C(=O)NC1CCCCC1
category.label: inactive

* * *

test: qHTS Assay for NPC1 Promoter Activators; details: Huh7 NPC1 promoter luciferase reporter, 24 h; series mostly up to 9.22 µM; note: nearly all actives have a fitted effect of over 60% in size;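 for activation: reporter is driven by a mutant NPC1 promoter; % of control where 0% means no effect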
About 7,600 (2.4%) of roughly 320,000 compounds were called active. Not shown: some 3% with an inconclusive outcome. Calls come from the whole dose curve; as a rule, active = well fitted activation curve with a large enough effect; inconclusive = small, poorly fitted or top-dose-only effect; inactive = no such curve, though single readings can be large or run the other way. Many of the other results were omitted from the sample, so actives are more common in it than they were.
Labels: active, inactive

compound: CC(=O)Nc1ccc(NC(=O)CCN2C(=O)C3CC=CCC3C2=O)cc1 (centres undefined)
category.label: inactive

compound: O=C(NC(Nc1nc2ccc([N+](=O)[O-])cc2s1)(C(F)(F)F)C(F)(F)F)c1ccccc1
category.label: inactive

compound: NC(=O)c1c(NC(=O)c2ccccc2)sc2c1CCCC2
category.label: active

compound: Cc1ccc(N/N=C2\COC(C)(C)CC2=O)cc1
category.label: active

compound: CN(C(=O)CSc1nnc(-c2n[nH]c3ccccc23)o1)c1ccccc1
category.label: inactive

compound: Cc1ccc(NC(=O)CNCc2ccccn2)cc1S(=O)(=O)N(C)C
category.label: inactive

compound: Cc1noc(C)c1S(=O)(=O)Nc1ccc(C(=O)N2CCN(c3ccc(F)cc3)CC2)cc1
category.label: inactive

compound: CCOc1ccc(NC(=O)CN(C)C(=O)CSc2ccccc2)cc1OCC
category.label: inactive

compound: Cc1ccc(C(=O)Oc2coc(CSc3nnc(NC(=O)c4cccs4)s3)cc2=O)cc1C
category.label: inactive

compound: COc1ccc(OC)c(S(=O)(=O)Nc2c(C)nn(C)c2C)c1
category.label: inactive

compound: O=C(CSc1nnc(Nc2ccccc2F)s1)NC1CCCC1
category.label: inactive

compound: NS(=O)(=O)c1ccc(CCNC(=O)COC(=O)COc2cccc(C(F)(F)F)c2)cc1
category.label: inactive

compound: COc1cc([N+](=O)[O-])ccc1NC(=O)COC(=O)CCOc1ccc(C)cc1
category.label: inactive

compound: Cc1nnc(NC(=O)c2ccc3nccnc3c2)s1
category.label: inactive

* * *

experiment: qHTS Assay for NPC1 Promoter Activators; settings: Huh7 NPC1 promoter luciferase reporter, 24 h; series mostly up to 9.22 µM; note: nearly all actives have a fitted effect of over 60% in size;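 for activation: reporter is driven by a mutant NPC1 promoter; % of control where 0% means no effect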
Among all 320,000 compounds or so, about 7,600 (2.4%) were called active. Not shown: some 3% with an inconclusive outcome. Calls follow the shape of the dose curve; as a rule, active = well fitted activation curve with a large enough effect; inconclusive = small, poorly fitted or top-dose-only effect; inactive = no such curve, though single readings can be large or run the other way. This is one part of a sample in which actives are shown more often than they occur.
Classes used: class 1 for active, class 0 for inactive

compound: COc1ccc(Cl)cc1NC(=O)CN(C)C(=O)c1ccc2n[nH]nc2c1
category.label: class 0

compound: COc1ccc(NC(=S)N2N=CCC2c2ccccc2)cc1 (centres undefined)
category.label: class 1

compound: Brc1ccc(CN2CC[C@H]3C=CCc4cccc(c43)C2)cc1
category.label: class 0

compound: COCCCNC(=O)COc1cc(C)c(Cl)c(C)c1
category.label: class 0

compound: O=c1c(Cl)c(NC2CC2)cnn1-c1ccccc1
category.label: class 0

compound: Cc1nc(/N=C(\N)NC(=O)NC2CCCCC2)nc2ccccc12
category.label: class 0

compound: Cc1cccc(C)c1OC(=O)CSc1nnc(-c2ccccc2)o1
category.label: class 0

compound: COc1ccc(NC(=S)N2CCc3cc(OC)c(OC)cc3C2)cc1
category.label: class 0

compound: CC(=O)C[C@@H](O)CC(=O)[C@H]1OC(=O)CCCCCCc2ccccc21
category.label: class 0

compound: Cc1ccccc1NC(=O)Cc1nc(COC(=O)c2ccc(C(F)(F)F)cc2)cs1
category.label: class 0

compound: CC(C)(C)OC(=O)Nc1ccc([C@@H](NC(=O)OC(C)(C)C)C(=O)OC(C)(C)C)cc1
category.label: class 0

compound: CCCCSc1nnc(-c2ccc(C)cc2)o1
category.label: class 1

compound: COc1ccc2c(C)cc(SCC(=O)NCC3CCCO3)nc2c1 (centres undefined)
category.label: class 0

compound: C=CCNc1cnn(-c2ccc(C)cc2)c(=O)c1Cl
category.label: class 1

compound: COc1ccc(N2C(=O)/C(=C\c3ccco3)N=C2SCC(N)=O)cc1Cl
category.label: class 0

compound: N#Cc1ccc(CSc2nnc3ccccn23)cc1
category.label: class 0

compound: O=C(c1ccc(Br)o1)N(c1ccccn1)C1CCCCC1
category.label: class 0

compound: CCC(=O)Nc1ccc(C(=O)Nc2cccc(OC)c2)cc1
category.label: class 0

compound: N/C(=N\OC(=O)c1cc(-c2ccccc2)nc2ccccc12)c1ccncc1
category.label: class 0

compound: O=C(CCc1nc2sc3c(c2c(=O)[nH]1)CCCC3)NCC(=O)Nc1ccccc1Br
category.label: class 0

compound: O=C(NCC(=O)N1CCCCCCC1)c1ccccc1Cl
category.label: class 0

compound: CCOC(=O)c1c(CNCc2ccccc2F)c2sc(C)cc2n1C
category.label: class 0

compound: Cc1cc(OCc2cc(C(=O)NCc3cc(C(C)C)no3)no2)cc(C)c1Cl
category.label: class 1

compound: O=C(NCCSc1ncc(-c2ccccc2)[nH]1)c1ccco1
category.label: class 0

compound: CC1(NC(=O)CCS(=O)(=O)c2ccc(Cl)cc2)CCS(=O)(=O)C1 (centres undefined)
category.label: class 0

compound: Cc1cccc(/C(N)=N/OC(=O)c2ccccc2Cl)c1
category.label: class 1

compound: CCCCn1c(N)c(N(CCC(C)C)C(=O)COC(=O)c2ccc(CC)cc2)c(=O)[nH]c1=O
category.label: class 0

compound: O=C(CSc1nnnn1C1CCCC1)N1CCCCC1
category.label: class 1

compound: Cc1nc2cc(NC(=O)NCc3ccccc3)ccc2o1
category.label: class 0
